So I've got a bunch of compounds here, and I need their viability, T/C values.
Test system: 349418-098-R tumor spheroid viability;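 further: spheroids exposed to compound for 7 days before measurement; percent of vehicle control viability with 100% = DMSO-treated spheroids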
Experiment: Anticancer human tumor 349418-098-R patient-derived lung adenocarcinoma cell line growth inhibition
Conditions: second compound 3.16 µM; first compound 0.0949 µM; hits give low values; spheroids with HUVEC and MSC
Method: Multicellular complex tumor spheroid response to DNA repair inhibitors in combination with DNA-damaging drugs This study explores the anticancer activities of DNA-damaging drugs and inhibitors of DNA damage repair, both as single agents and in combinations. […] Twenty-six patient-derived or established malignant cell lines were evaluated representing sarcoma, melanoma, small cell lung cancer (SCLC), non-small cell lung cancer (NSCLC), as well as bladder, ovarian and pancreatic cancers. […]
Kindly provide the numeric value in % only, without the unit symbol.

compound CNCc1ccc(-c2cc(-c3nc(-c4ccc(S(=O)(=O)C(C)C)cc4)cnc3N)on2)cc1 + Cn1nnc2c(C(N)=O)ncn2c1=O , viability, T/C observed: 102

Measured viability, T/C of O=C(c1cc(Cc2n[nH]c(=O)c3ccccc23)ccc1F)N1CCN(C(=O)C2CC2)CC1 + Cn1nnc2c(C(N)=O)ncn2c1=O : 99.5

Entry Cn1ncnc1[C@H]1c2n[nH]c(=O)c3cc(F)cc(c23)N[C@@H]1c1ccc(F)cc1 + Cn1nnc2c(C(N)=O)ncn2c1=O , viability, T/C reported as 97.5

Record Cc1sc2c(c1C)C(c1ccc(Cl)cc1)=NC(CC(=O)Nc1ccc(O)cc1)c1nnc(C)n1-2 (centres undefined) + Cn1nnc2c(C(N)=O)ncn2c1=O , field viability, T/C: 62.7
